- Tested on: 15 different HLA-DR molecules
- assay.explanation: HLA-DR binding assays, panel of 15 different HLA-DR molecules (breadth of binding)
- measurement.parameters: number of the 15 HLA-DR molecules bound (binders: 1000 nM or better)
Give Total XRN for every item shown.
Numbers only.

- CC[C@H](C)[C@H](NC(=O)[C@@H](NC(=O)[C@H](CC(C)C)NC(=O)[C@H](CCCCN)NC(=O)[C@H](C)NC(=O)[C@@H](NC(=O)[C@@H](NC(=O)[C@@H]1CCCN1C(=O)[C@@H]1CCCN1C(=O)[C@H](CC(N)=O)NC(=O)[C@H](Cc1c[nH]c2ccccc12)NC(=O)[C@H](Cc1ccccc1)NC(=O)[C@@H](NC(=O)[C@H](CC(C)C)NC(=O)[C@@H](N)CC(C)C)[C@@H](C)O)[C@@H](C)O)[C@@H](C)O)[C@@H](C)O)C(=O)O [Peptide 9019.0105]: 10

Consider now this further compound.
Inquiry: Query (compound): CC[C@H](C)[C@H](NC(=O)[C@H](CCCNC(=N)N)NC(=O)[C@H](CCC(=O)O)NC(=O)[C@H](CC(C)C)NC(=O)[C@@H](NC(=O)[C@H](CCC(N)=O)NC(=O)[C@H](CC(=O)O)NC(=O)[C@@H](N)CC(C)C)C(C)C)C(=O)N[C@@H](CO)C(=O)N[C@H](C(=O)N[C@@H](CCSC)C(=O)N[C@@H](CCCNC(=N)N)C(=O)N[C@@H](CC(C)C)C(=O)N1CCC[C@H]1C(=O)N[C@@H](CC(=O)O)C(=O)O)[C@@H](C)O [Peptide 9019.0189] ; field requested: Total XRN
Reply text: 12

====

Give IC50 for every item shown.
- measured.on: purified HLA DRB5*0101 (Homo sapiens, UniProt P01903+Q30154)
- Construct: purified from EBV transformed homozygous cell lines or single MHC allele transfected 721.221, C1R, or fibroblast lines; made in house
- assay.explanation: HLA-DR radioligand binding inhibition assay, DRB5*0101
- measurement.parameters: IC50 nM purified HLA DRB5 *0101, purified HLA DRB5*0101

* CC[C@H](C)[C@H](NC(=O)[C@@H](NC(=O)[C@@H]1CCCN1C(=O)[C@H](C)N)[C@@H](C)O)C(=O)N[C@@H](CCCNC(=N)N)C(=O)NCC(=O)N[C@@H](CC(=O)O)C(=O)N1CCC[C@H]1C(=O)N[C@@H](CCC(=O)O)C(=O)N[C@@H](CS)C(=O)N[C@@H](Cc1c[nH]cn1)C(=O)N[C@@H](CC(C)C)C(=O)N[C@@H](Cc1ccccc1)C(=O)N[C@@H](Cc1ccc(O)cc1)C(=O)N[C@@H](CC(N)=O)C(=O)O [Peptide 9019.0022] | > 20000 nM

Inquiry: Query (compound): CC(C)C[C@H](NC(=O)[C@@H](NC(=O)[C@@H](NC(=O)[C@@H]1CCCN1C(=O)[C@H](CC(=O)O)NC(=O)[C@H](CO)NC(=O)[C@H](CCCNC(=N)N)NC(=O)[C@H](CC(N)=O)NC(=O)[C@H](C)NC(=O)[C@H](CO)NC(=O)[C@@H](NC(=O)[C@H](CO)NC(=O)[C@H](CC(N)=O)NC(=O)[C@@H](N)CCC(N)=O)C(C)C)C(C)C)[C@@H](C)O)C(=O)N[C@@H](CC(=O)O)C(=O)O [Peptide 9019.0136] ; field requested: IC50
Reply text: 5820 nM

# credit: patent US20140377340A1
